Target: T1, IgV domain of cynomolgus SIRPα (Macaca fascicularis, EHH65484.1 allele)
T1 chain: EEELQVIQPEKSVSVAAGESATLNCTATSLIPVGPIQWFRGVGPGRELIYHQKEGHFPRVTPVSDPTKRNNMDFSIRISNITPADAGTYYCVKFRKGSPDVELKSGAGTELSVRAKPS
Test: SPR
The binders listed here are annotated with their Kd.
Just the number in nM, nothing appended.

Examples from the recorded data:
>>> measurement("anti-SIRPα antibody clone 115, full-length IgG1 (antibody, V domains shown) VH: DVQLVESGGGVVRPGESLRLSCAASGFSFSSYAMNWVRQAPGEGLEWVSRINSGGGGTDYAESVKGRFTISRDNSENTLYLQMNSLRAEDTAVYYCAKQYDWNSFFDYWGLGALVTVSS VL: ETVLTQSPATLSVSPGERATLSCRASQTVGSKLAWHQQKPGQAPRLLIYDATNRATGISDRFSGSGSGTDFTLTISSLQTEDSAVYYCQQYYYWPPYRFGGGTKVEIK")
2.41
>>> measurement("anti-SIRPα antibody clone 119, full-length IgG1 (antibody, V domains shown) VH: DVQLLESGGGVVQPGGSLRLSCAASGFSFSNFAMTWVRQAPGEGLEWVSTIGSGDTYYADSVKGRFTISRDNSKNTLYLQMNSLRAEDTAVYYCAKDSTVSWSGDFFDYWGQGTLVTVSS VL: EIVLTQSPATLSVSPGERATFSCRASQNVKNDLAWYQQRPGQAPRLLIYAARIRETGIPERFSGSGSGTEFTLTITSLQSEDFAVYYCQQYYDWPPFTFGGGTKVEIK")
0.112
>>> measurement("anti-SIRPα clone 218, scFv-Fc (scFv, V domains shown) VH: DVQLVESGGGVVRPGESLTLSCTASGFTFTSSTMNWVRQAPGEGLDWVSSISTSGVITYYADSVKGRATISRDNSKNTLYLRLFSLRADDTAIYYCATDTFDHWGPGTLVTVSS VL: ALTQPASVSANPGETVKITCFGSSGNYGWFQQKSPGSAPVTVIHYNNKRPSDIPSRFSGSKSGSTGTLTITGVRAEDEAVYFCGAWETGSATFGAGTTLTVL")
0.0599

[in] Fill blank: measured Kd of the binder anti-SIRPα antibody clone 3, full-length IgG1 (antibody, V domains shown) VH: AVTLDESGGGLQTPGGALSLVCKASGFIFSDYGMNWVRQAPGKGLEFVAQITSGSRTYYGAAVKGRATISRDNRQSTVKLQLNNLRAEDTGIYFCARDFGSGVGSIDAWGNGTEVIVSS VL: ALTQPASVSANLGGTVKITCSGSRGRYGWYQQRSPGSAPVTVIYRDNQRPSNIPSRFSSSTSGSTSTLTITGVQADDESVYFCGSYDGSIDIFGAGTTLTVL is ____.
[out] 2.29
